meta.source: PubChem BioAssay (NCATS)

Test system: DIV14
MEASUREMENT NOTES: qHTS profiling for inhibitors of Plasmodium falciparum proliferation (AID 504749); further: nearly all actives have a fitted effect of over 60% in size
CONDITION CONTEXT: P. falciparum in erythrocytes, SYBR Green DNA, 72 h; series mostly up to 28.7 µM
Protocol: NIH National Institute of Allergy and Infectious Diseases [NIAID] NIH Chemical Genomics Center [NCGC] […] Because mature erythrocytes lack DNA, only Plasmodium-derived DNA is detected. NCGC Assay Protocol Summary: The SYBR Green viability assay was adapted from a method described previously (Plouffe et al., 2008). […] The following morning, fluorescence intensity at 485(14) nm excitation and 535(25) nm emission wavelengths was measured on an EnVision (Perkin Elmer) plate reader. […]
Inconclusive results are not listed. Activity calls are given as the source filed them. The call rests on the fitted dose curve; in most records, active means well fitted inhibition curve with a large enough effect; inconclusive means small, poorly fitted or top-dose-only effect; inactive means flat fitted curve, though single readings scatter.
Classes used: YES = active, NO = inactive

COMPOUND	CAT
NCCC(O)(P(=O)(O)O)P(=O)(O)O	NO
CC(C)NC[C@@H](O)COc1cccc2ccccc12	YES
NC(CS)C(=O)O (stereo unspecified)	YES
CC(C)COC(=O)OCN1C(=O)CN(CCN2CC(=O)N(COC(=O)OCC(C)C)C(=O)C2)CC1=O	NO
COc1cc2c(cc1OC)C(C(C(=O)N(CCc1ccc(OC)c(OC)c1OC)CCc1ccc(OC)c(OC)c1OC)c1ccccc1)=NCC2 (stereo unspecified)	YES
N[C@H](Cc1c[nH]c2ccccc12)C(=O)O	NO
